- target_system: BACE-1 (Homo sapiens, UniProt P56817)
- Sequence (P56817 46-501): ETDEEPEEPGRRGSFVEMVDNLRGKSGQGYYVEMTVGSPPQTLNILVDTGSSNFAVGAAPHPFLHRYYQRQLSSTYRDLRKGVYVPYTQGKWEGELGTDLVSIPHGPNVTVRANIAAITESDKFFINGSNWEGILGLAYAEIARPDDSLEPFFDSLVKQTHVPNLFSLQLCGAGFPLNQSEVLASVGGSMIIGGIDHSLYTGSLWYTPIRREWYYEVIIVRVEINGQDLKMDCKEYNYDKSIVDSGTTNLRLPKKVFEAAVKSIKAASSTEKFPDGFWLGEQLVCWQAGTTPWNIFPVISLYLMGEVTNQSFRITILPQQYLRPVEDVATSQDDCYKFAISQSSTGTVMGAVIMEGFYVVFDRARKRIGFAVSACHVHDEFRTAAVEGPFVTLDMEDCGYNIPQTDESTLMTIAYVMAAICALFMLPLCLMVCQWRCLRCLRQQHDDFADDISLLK
- assay_details: HTRF cell based assay, Aβ1-40 peptide secreted by recombinant HEK293 cells
- protocol_conditions: Aβ1-40 secretion, recombinant HEK293 cells producing APP, overnight treatment; read-out: Cellular assay EC50 Ranges
measured_endpoint: EC50

1. NC1=NC2(CCCc3sc(-c4cccnc4)cc32)CCS1 (stereo not drawn) [Example 4]; 5 to 50 µM
2. CS(=O)(=O)c1cccc(-c2cc3c(s2)CCCC32CCSC(N)=N2)c1 (stereo not drawn) [Example 9]; 1 to 5 µM
3. NC1=NC2(CCCc3sc(-c4cccc(-c5ccccc5)c4)cc32)CCS1 (stereo not drawn) [Example 21]; 5 to 50 µM
4. N#Cc1cc(Cl)cc(-c2cc3c(s2)CCCC32CCSC(N)=N2)c1 (stereo not drawn) [Example 34]; 1 to 5 µM
5. N#Cc1cccc(-c2cc3c(s2)CCCC32N=C(N)N(Cc3ccccc3)O2)c1 (stereo not drawn) [Example 60]; 5 to 50 µM
6. NC1=NC2(CCCc3sc(-c4cccc(OCc5ccccc5)c4)cc32)CCS1 (stereo not drawn) [Example 30]; 5 to 50 µM
7. NC1=NC2(CCCc3sc(-c4cccc(OC(F)(F)F)c4)cc32)CCS1 (stereo not drawn) [Example 24]; 5 to 50 µM
8. N#Cc1cc(-c2cc3c(s2)CCCC32CCSC(N)=N2)ccn1 (stereo not drawn) [Example 20]; 1 to 5 µM
9. N#Cc1ccc(Cl)c(-c2cc3c(s2)CCCC32CCSC(N)=N2)c1 (stereo not drawn) [Example 16]; ≤ 1 µM

* * *

Property: EC50; scope: individual molecules
- target_system: BACE-1 (Homo sapiens, UniProt P56817)
- assay_details: HTRF cell based assay, Aβ1-40 peptide secreted by recombinant HEK293 cells
- protocol_conditions: Aβ1-40 secretion, recombinant HEK293 cells producing APP, overnight treatment; read-out: Cellular assay EC50 Ranges
Structures can show the parent of a compound that is named as a salt.
measured_endpoint: EC50

1) NC1=NC2(CCCc3sc(NC(=O)c4ccc(Br)cn4)cc32)CCS1 (stereo not drawn) [Example 40]; 5 to 50 µM
2) CN1C(=O)C2(CCCc3sc(-c4cccc(OC(F)(F)F)c4)cc32)N=C1N (stereo not drawn) [Example 53]; 5 to 50 µM
3) CN1C(=O)[C@]2(CCCc3sc(-c4cccc(C#N)c4)cc32)N=C1N (single isomer, unassigned) [Example 50]; 1 to 5 µM
4) COCC1Cc2sc(-c3cccc(C#N)c3)cc2C2(CCSC(N)=N2)C1 (racemic) [Example 45, Hydrochloride Salt]; 1 to 5 µM
5) COc1ccc(-c2cccc(-c3cc4c(s3)CC(C)(C)CC43CCSC(N)=N3)c2)cc1 (stereo not drawn) [Example 42]; 5 to 50 µM
6) N#Cc1ccc(F)c(-c2cc3c(s2)CCCC32CCSC(N)=N2)c1 (stereo not drawn) [Example 15]; ≤ 1 µM
7) NC1=NC2(CCCc3sc(-c4ccc5c(c4)OCO5)cc32)CCS1 (stereo not drawn) [Example 8]; 5 to 50 µM
8) CN1OC2(CCCc3sc(-c4cccc(C(F)(F)F)c4)cc32)N=C1N (stereo not drawn) [Example 58]; 5 to 50 µM
9) Cc1cc(C#N)cc(-c2cc3c(s2)CCCC32CCSC(N)=N2)c1 (stereo not drawn) [Example 35]; 1 to 5 µM
10) COc1ncc(-c2cc3c(s2)CCCC32CCSC(N)=N2)cc1C#N (stereo not drawn) [Example 18]; 1 to 5 µM
11) N#Cc1cccc(-c2cc3c(s2)CCCC32CCSC(N)=N2)n1 (stereo not drawn) [Example 31]; 1 to 5 µM
12) N#Cc1cccc(-c2cc3c(s2)CCCC32N=C(N)N(Cc3ccccc3)C2=O)c1 (stereo not drawn) [Example 57]; 5 to 50 µM
13) N#Cc1cncc(-c2cc3c(s2)CCCC32CCSC(N)=N2)c1 (stereo not drawn) [Example 19]; 1 to 5 µM
14) COc1ccc(-c2cc3c(s2)CCCC32CCSC(N)=N2)cc1C#N (stereo not drawn) [Example 22]; 1 to 5 µM
15) NC1=NC2(CCCc3sc(-c4ccc(F)cc4)cc32)CCS1 (stereo not drawn) [Example 3]; 5 to 50 µM
16) N#Cc1cc(-c2cc3c(s2)CCCC32CCSC(N)=N2)cc(C(F)(F)F)c1 (stereo not drawn) [Example 32]; 5 to 50 µM
17) COc1cccc(-c2cccc(-c3cc4c(s3)CCCC43CCSC(N)=N3)c2)c1 (stereo not drawn) [Example 38]; 5 to 50 µM
18) CN1C(=O)C2(CCCc3sc(-c4cccnc4)cc32)N=C1N (stereo not drawn) [Example 52]; 1 to 5 µM

Cited source for all entries: patent US9233982B2
